Target or test system: Human immunodeficiency virus type 1 protease (Human immunodeficiency virus 1, UniProt Q72874)
pIC50: −log10 of the molar value.
Attribute measured: pIC50

P = CCC[C@]1(CCc2ccccc2)OC(=O)C([C@H](CC)c2cccc(NS(=O)(=O)c3ccc(C(F)(F)F)cn3)c2)=C(O)O1 (racemic)
Q = CCCC1(CCc2ccccc2)OC(=O)C(C(CC)c2cccc(NS(=O)(=O)c3ccc(C#N)cc3)c2)=C(O)O1 (configuration not stated)
Enquiry: Which has the smaller recorded pIC50, P or Q ? Answer by stating the label of the chosen item.
Return: P
(P: 7.30, Q: 7.82)

A = CCCC1(CCc2ccccc2)OC(=O)C(C(CC)c2cccc(NS(=O)(=O)c3ccc([N+](=O)[O-])cn3)c2)=C(O)O1 (configuration not stated)
B = CCCC1(CCc2ccccc2)OC(=O)C(C(CC)c2cccc(NS(=O)(=O)c3ccc(N)cn3)c2)=C(O)O1 (configuration not stated)
Enquiry: Name the one with the greater pIC50 value, either A or B as given. Answer by stating the label of the chosen item.
Return: B

1 = CCCC1(CCc2ccccc2)OC(=O)C(C(CC)c2cccc(NS(=O)(=O)c3ccc(C#N)cn3)c2)=C(O)O1 (configuration not stated)
2 = CCCC1(CCc2ccccc2)OC(=O)C(C(CC)c2cccc(NS(=O)(=O)c3ccccn3)c2)=C(O)O1 (configuration not stated)
Enquiry: Name the one with the greater pIC50 value, either 1 or 2 as given. Answer by stating the label of the chosen item.
Return: 1
